- Measurement Target: Ryanodine receptor 1 (Oryctolagus cuniculus, UniProt P11716)
- Sequence (P11716 whole entry): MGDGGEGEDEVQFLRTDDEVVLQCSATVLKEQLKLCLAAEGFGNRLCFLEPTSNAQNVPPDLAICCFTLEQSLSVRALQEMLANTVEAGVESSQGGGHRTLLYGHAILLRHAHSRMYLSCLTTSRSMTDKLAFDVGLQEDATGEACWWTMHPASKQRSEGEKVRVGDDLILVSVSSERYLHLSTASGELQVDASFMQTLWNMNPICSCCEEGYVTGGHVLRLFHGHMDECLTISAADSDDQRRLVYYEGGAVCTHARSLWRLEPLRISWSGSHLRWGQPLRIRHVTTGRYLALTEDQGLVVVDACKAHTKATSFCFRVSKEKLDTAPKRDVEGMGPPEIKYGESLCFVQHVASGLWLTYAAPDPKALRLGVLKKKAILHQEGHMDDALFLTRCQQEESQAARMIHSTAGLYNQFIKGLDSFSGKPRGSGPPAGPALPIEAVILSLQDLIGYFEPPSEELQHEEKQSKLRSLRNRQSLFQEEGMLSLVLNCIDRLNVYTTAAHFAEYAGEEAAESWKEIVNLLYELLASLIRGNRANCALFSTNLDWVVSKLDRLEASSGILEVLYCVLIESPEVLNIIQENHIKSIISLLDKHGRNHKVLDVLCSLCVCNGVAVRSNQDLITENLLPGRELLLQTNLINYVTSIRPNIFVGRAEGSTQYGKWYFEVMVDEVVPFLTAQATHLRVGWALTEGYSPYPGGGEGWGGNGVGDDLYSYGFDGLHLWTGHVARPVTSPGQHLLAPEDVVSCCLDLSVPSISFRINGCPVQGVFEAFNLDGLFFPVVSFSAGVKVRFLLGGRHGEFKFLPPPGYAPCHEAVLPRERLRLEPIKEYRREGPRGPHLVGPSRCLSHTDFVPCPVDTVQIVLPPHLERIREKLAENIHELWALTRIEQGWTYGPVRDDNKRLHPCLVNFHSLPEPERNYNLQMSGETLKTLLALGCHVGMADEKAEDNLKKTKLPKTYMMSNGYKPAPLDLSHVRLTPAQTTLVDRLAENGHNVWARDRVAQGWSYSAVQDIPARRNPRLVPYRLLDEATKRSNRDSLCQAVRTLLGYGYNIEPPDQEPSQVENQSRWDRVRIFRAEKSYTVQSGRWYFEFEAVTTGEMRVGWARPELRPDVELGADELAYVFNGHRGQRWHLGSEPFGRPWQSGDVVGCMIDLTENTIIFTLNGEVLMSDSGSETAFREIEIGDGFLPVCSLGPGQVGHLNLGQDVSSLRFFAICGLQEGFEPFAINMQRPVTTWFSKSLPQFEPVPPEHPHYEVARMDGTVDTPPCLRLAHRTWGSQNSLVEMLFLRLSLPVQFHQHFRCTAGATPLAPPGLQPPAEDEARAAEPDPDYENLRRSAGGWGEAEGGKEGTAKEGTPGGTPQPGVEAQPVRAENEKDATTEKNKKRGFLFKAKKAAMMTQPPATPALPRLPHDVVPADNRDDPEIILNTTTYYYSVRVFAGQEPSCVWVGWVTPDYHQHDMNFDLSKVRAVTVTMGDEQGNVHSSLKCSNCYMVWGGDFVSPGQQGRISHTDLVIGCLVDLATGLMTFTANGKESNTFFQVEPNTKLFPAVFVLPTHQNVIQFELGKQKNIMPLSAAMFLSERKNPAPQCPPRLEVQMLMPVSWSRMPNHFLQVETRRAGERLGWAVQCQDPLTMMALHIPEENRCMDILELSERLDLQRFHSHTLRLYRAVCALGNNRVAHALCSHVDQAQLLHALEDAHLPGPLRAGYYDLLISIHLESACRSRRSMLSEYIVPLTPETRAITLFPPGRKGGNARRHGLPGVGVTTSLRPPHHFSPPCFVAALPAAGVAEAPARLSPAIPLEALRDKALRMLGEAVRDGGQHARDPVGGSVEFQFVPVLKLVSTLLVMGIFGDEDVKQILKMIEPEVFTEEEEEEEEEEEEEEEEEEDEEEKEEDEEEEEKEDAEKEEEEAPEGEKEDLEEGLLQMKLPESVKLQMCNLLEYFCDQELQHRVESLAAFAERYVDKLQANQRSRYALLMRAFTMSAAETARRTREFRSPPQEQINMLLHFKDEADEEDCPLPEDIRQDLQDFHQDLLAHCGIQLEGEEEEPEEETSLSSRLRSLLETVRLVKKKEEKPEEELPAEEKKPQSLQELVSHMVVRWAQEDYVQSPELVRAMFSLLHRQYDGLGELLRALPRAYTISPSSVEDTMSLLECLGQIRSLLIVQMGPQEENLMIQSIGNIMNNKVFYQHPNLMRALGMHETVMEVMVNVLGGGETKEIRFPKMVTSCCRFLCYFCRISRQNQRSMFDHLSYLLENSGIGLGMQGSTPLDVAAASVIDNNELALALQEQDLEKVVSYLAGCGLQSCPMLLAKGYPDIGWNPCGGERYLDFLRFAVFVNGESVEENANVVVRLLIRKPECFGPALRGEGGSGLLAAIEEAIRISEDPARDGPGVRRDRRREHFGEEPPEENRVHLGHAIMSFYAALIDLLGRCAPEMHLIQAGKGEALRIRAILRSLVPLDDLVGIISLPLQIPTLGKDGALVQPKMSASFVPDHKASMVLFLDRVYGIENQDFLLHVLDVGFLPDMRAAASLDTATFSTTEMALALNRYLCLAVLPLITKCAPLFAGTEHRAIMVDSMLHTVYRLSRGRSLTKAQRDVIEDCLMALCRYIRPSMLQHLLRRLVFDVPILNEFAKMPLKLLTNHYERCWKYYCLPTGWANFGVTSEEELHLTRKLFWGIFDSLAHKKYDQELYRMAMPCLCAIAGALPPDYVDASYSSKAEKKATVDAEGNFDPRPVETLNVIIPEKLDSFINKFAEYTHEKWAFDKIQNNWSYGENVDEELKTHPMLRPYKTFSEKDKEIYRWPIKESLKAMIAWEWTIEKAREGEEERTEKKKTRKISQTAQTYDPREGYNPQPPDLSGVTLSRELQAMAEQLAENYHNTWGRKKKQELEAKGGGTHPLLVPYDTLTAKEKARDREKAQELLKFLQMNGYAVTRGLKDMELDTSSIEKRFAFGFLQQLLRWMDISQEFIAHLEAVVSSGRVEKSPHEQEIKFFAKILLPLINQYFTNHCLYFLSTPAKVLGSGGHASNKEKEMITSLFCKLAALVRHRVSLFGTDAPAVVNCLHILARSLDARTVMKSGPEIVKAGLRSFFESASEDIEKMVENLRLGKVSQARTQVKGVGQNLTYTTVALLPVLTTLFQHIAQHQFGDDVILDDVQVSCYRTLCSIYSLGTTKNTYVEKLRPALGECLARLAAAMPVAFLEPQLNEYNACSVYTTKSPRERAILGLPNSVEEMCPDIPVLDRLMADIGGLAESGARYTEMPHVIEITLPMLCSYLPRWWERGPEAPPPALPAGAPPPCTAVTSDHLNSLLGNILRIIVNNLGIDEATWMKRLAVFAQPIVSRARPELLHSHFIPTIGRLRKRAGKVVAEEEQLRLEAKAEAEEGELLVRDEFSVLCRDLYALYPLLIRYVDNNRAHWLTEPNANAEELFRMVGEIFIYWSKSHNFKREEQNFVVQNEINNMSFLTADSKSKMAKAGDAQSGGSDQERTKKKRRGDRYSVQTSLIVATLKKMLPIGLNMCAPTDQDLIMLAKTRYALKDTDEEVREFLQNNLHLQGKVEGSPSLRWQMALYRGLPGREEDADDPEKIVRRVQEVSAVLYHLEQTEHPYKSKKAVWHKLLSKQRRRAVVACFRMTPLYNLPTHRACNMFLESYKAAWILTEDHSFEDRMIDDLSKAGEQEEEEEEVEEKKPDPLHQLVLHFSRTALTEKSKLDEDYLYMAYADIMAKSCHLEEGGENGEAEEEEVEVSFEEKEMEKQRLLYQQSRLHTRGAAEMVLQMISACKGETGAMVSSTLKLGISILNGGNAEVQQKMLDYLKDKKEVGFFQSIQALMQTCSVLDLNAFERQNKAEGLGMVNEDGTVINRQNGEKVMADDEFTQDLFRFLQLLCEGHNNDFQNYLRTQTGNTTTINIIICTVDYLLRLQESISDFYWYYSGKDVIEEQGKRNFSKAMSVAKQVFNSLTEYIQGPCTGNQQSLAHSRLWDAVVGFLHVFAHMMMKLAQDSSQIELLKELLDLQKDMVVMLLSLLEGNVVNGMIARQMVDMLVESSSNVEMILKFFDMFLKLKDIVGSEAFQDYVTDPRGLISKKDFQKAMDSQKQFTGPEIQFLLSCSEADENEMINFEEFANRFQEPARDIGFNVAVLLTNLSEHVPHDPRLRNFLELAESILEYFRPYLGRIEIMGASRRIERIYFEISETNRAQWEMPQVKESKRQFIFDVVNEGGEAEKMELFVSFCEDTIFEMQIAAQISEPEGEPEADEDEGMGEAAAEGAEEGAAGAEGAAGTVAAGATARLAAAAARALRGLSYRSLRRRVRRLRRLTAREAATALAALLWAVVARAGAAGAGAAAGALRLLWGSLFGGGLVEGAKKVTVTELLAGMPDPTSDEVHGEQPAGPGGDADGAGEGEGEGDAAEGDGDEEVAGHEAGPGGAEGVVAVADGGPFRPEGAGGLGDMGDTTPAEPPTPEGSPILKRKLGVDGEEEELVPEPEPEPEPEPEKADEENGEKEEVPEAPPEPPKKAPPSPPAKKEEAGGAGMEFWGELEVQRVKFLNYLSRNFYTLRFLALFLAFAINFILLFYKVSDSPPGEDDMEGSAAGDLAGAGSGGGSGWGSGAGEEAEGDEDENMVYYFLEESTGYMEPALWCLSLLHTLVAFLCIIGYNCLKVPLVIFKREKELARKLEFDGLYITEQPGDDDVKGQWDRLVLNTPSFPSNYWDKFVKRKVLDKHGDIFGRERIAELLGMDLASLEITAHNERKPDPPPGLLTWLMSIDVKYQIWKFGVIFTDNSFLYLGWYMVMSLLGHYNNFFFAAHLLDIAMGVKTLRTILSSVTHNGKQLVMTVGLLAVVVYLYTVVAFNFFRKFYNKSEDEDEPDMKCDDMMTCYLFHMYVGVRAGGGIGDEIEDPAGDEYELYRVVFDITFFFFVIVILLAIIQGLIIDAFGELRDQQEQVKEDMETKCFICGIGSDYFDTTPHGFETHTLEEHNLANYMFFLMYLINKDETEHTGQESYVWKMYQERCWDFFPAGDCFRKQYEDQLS
Could you please mark condition met for values of IC50 below 5000 nM and condition not met for values at or above it?

{"columns": ["Compound", "Answer Label"],
 "data": [
  ["CC(CO)[C@@]1(O)[C@@H](OC(=O)c2ccc[nH]2)[C@@]2(O)[C@@]3(C)C[C@]4(O)O[C@@]5([C@H](O)[C@@H](C)CC[C@]35O)[C@@]2(O)[C@]14C (some centres not stated) [18-HYDROXYRYANODINE]", "condition met"],
  ["CC(C)[C@@]1(O)[C@@H](O)[C@@]2(O)[C@@]3(C)C[C@]4(O)O[C@@]5([C@H](O)[C@@H](C)CC[C@]35O)[C@@]2(O)[C@]14C", "condition not met"],
  ["CO[C@@H]1[C@@H](C)CC[C@]2(O)[C@]3(C)C[C@]4(OC)O[C@]12[C@]1(O)[C@@]3(OC)[C@H](OC(=O)c2cccn2C)[C@](O)(C(C)C)[C@]41C", "condition not met"],
  ["CO[C@@]12C[C@@]3(C)[C@@]4(O)CC[C@H](C)[C@@H](O)[C@]4(O1)[C@]1(O)[C@@]3(O)[C@H](OC(=O)c3cccn3C)[C@](O)(C(C)C)[C@]21C", "condition met"],
  ["CCCCn1cccc1C(=O)O[C@H]1[C@@]2(O)[C@@]3(C)C[C@]4(O)O[C@@]5([C@H](O)[C@@H](C)CC[C@]35O)[C@@]2(O)[C@]4(C)[C@@]1(O)C(C)C", "condition met"],
  ["CC1=C(C(C)C)[C@@H](OC(=O)c2ccc[nH]2)[C@@]2(O)[C@@]3(C)CC(=O)O[C@@]4([C@H](O)[C@@H](C)CC[C@]34O)[C@@]12O [ANHYDRORYANODINE]", "condition not met"]
]}

Origin of the recorded values: ChEMBL document CHEMBL3045240
